molecular target: human GR (Homo sapiens); experiment: Trans-Activation Modulation of Glucocorticoid Receptor (GRAMMER), MMTV-LUC reporter, agonist mode; type: cell-based; parameters: endogenous in cells; conditions: A549, A549 cells; maximum activity; read-out: Transactivation A549 Cells GRAMMER Emax
Sequence (P04150 whole entry): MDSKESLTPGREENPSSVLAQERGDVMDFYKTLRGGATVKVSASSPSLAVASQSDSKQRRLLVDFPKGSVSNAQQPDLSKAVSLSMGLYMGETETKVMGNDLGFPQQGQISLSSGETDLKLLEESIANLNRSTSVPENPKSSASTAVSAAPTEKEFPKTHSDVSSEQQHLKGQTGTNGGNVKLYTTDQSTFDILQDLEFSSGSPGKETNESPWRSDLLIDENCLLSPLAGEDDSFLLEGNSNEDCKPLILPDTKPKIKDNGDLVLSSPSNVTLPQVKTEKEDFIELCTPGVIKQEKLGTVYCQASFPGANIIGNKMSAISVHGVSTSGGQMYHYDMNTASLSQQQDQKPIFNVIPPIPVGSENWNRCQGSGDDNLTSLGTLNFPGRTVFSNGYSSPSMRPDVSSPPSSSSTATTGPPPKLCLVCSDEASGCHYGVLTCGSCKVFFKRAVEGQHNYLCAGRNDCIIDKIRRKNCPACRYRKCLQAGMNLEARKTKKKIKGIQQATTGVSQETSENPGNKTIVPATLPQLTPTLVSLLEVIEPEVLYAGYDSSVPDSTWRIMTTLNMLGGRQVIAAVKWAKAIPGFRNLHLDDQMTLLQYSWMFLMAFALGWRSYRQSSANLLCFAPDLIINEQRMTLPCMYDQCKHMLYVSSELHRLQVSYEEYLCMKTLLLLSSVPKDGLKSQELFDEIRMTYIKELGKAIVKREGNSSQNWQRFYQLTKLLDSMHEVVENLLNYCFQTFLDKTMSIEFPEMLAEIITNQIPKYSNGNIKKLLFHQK
Reported Emax values follow for various compounds
reported_metric: Emax (%)

1) CCN(C[C@H]1CCC2=Cc3c(cnn3-c3ccc(F)cc3)C[C@@]21C)S(=O)(=O)c1c(C)noc1C :: 55
2) C[C@]12Cc3cnn(-c4ccc(F)cc4)c3C=C1CC[C@@H]2CN(CC#N)S(=O)(=O)c1ccc(F)c(F)c1 :: 76.4
3) C[C@]12Cc3cnn(-c4ccc(F)cc4)c3C=C1CC[C@@H]2CN(CCCc1ccccc1)S(=O)(=O)c1ccccc1F :: 12.9
4) C[C@]12Cc3cnn(-c4ccc(F)cc4)c3C=C1CC[C@@H]2CN(CC1CC1)S(=O)(=O)c1ccccc1F :: 50.5
5) CCCS(=O)(=O)N(CCc1ccccc1F)C[C@H]1CCC2=Cc3c(cnn3-c3ccc(F)cc3)C[C@@]21C :: 65.1
6) Cc1ccccc1S(=O)(=O)N(CC#N)C[C@H]1CCC2=Cc3c(cnn3-c3ccc(F)cc3)C[C@@]21C :: 14.1
7) C[C@]12Cc3cnn(-c4ccc(F)cc4)c3C=C1CC[C@@H]2CN(CC#N)S(=O)(=O)Cc1cccc(C(F)(F)F)c1 :: 3.5
8) C[C@]12Cc3cnn(-c4ccc(F)cc4)c3C=C1CC[C@@H]2CN(CC(O)C(F)F)S(=O)(=O)CC(F)(F)F (some centres unmarked) :: 73.4
9) C[C@]12Cc3cnn(-c4ccc(F)cc4)c3C=C1CC[C@@H]2CN(CCO)S(=O)(=O)c1ccccc1C(F)(F)F :: 25.8
10) Cc1ccc(S(=O)(=O)N(CC#N)C[C@H]2CCC3=Cc4c(cnn4-c4ccc(F)cc4)C[C@@]32C)s1 :: 20.7
11) CCCS(=O)(=O)N(CCOC)C[C@H]1CCC2=Cc3c(cnn3-c3ccc(F)cc3)C[C@@]21C :: 70.4
12) C[C@]12Cc3cnn(-c4ccc(F)cc4)c3C=C1CC[C@@H]2CNS(=O)(=O)Cc1cccnc1 :: 12.4
13) C[C@]12Cc3cnn(-c4ccc(F)cc4)c3C=C1CC[C@@H]2CN(CCO)S(=O)(=O)c1ccc(-c2cnco2)s1 :: 2.7
14) C[C@]12Cc3cnn(-c4ccc(F)cc4)c3C=C1CC[C@@H]2CN(CC#N)S(=O)(=O)c1ccccc1C#N :: 47.7
